Hello, the source for this data is patent US10220040B2, in case you need it.

biological target: human P2Y13 receptor (Homo sapiens (Human), UniProt Q9BPV8); test: Ca++ flux agonist assay on P2Y13 receptor transfected 1321N1 cells; assay type: cell-based; conditions: Table 3, measured from data of Figure 1; comma is decimal sign
Sequence (Q9BPV8 whole entry): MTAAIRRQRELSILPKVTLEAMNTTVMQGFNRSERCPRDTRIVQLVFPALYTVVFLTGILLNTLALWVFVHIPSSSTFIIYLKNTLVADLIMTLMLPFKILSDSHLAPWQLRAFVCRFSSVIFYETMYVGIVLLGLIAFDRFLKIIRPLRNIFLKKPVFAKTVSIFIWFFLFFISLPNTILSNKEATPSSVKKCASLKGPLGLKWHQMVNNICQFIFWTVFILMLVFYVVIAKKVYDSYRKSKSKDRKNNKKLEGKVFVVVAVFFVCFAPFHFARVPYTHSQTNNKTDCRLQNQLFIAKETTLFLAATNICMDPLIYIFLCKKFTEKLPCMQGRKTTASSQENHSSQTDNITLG

{"compound": "CC(C)(CCCCCC(c1ccccc1Cl)N1CCC(O)/C(=C/C(=O)O)C1)C(=O)O (stereo not drawn)", "EC50, µM": 55.2}
{"compound": "CCOC(=O)C(C)(C)CCCC[C@@H](c1ccccc1Cl)N1CCc2sccc2C1 [Compound Ih (S-isomer)]", "EC50, µM": 33.7}
{"compound": "CCOC(=O)C(C)(C)CCCC[C@H](c1ccccc1Cl)N1CCc2sccc2C1 [Compound Ih (R-isomer)]", "EC50, µM": 42.4}
